- TARGET OF ASSAY: T1, UNK ZnF1-3 (human, UniProt Q9C0B0 31-174)
- T1 sequence: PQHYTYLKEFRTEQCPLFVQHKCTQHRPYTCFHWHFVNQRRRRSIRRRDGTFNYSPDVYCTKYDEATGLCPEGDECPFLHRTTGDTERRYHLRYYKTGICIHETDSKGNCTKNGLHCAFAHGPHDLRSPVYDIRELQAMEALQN
- RUN DESCRIPTION: nsRBNS (natural sequence RNA bind-n-seq); RBNS binding buffer (assumed for nsRBNS): 25 mM Tris pH 7.5, 150 mM KCl, 3 mM MgCl2, 0.01% Triton X-100, 500 ug/ml BSA, 20 U/ml SUPERase-In, 4 C; UNK is unkempt and MSI1 is Musashi-1; names of the RNAs are library labels; protein concentration not given here; high values mean tight binding
Whole data set: some 24,000 sequences, median “enrichment r” near 0.99, cut for the highest 2% near 3.7. This is one part of a sample in which the highest values are shown more often than they occur.
We begin with a simple list: items and their reported binding signal.
Express it in enrichment R; write the number only.

chr21:32491406:32491407:-_ENSG00000156299_ENST00000286827|hu_hu|motif|central (ssRNA) RNA: GGGAGUUCUACAGUCCGACGAUCCAUAGUAUUUUAAACCCUUCUUAGGAAGUGGACAUUGUGACAUGGGAAAAGAAAAAGCGGUAAACCUUUUUUUAAAAAAAAAAAAAAAAUUGAAAGUGCUAUAACUUGUUUUUCUUCUUACAACAGAGGAUUGAGCAUCA	1.34

Here is the next item to consider.
-- ask Please look up its binding signal: chr5:106037793:106037794:+_ENSMUSG00000054720_ENSMUST00000067924|mus_mus|motif|central (ssRNA) RNA: GGGAGUUCUACAGUCCGACGAUCUGUUGUCUUGUGUGGAAAAGGAAAAAAAAAUAAUAUAGGAAAGGCAUUAGGACGGCCGGAUUCUUUAUAUUGUAUUUGGUAGAAGCAUGUUUCAGUCAUACUCUGAUGAAAAAUAAGUUACAACAGAGGAUUGAGCAUCA
-- reply 5.1
